Each entry below lists one item and its recorded Kd value.
- SUBJECT OF TEST: HLA-A*26:01
- PROTOCOL: IEDB peptide-MHC binding, purified MHC/competitive/radioactivity; filed as Kd, often an IC50 or EC50 that approximates it; bounds were set here for any values at or beyond the usual limits of such assays
- SETTINGS: source organism: Mammarenavirus juninense
MEASURED PARAMETER: Kd

| RESIDUE STRING | RESULT |
| --- | --- |
| LYDVIPVTY | ≥ 77.9 µM |
| ASAHVRQSEY | ≥ 24.7 µM |

---

- SUBJECT OF TEST: HLA-B*08:02
- PROTOCOL: IEDB peptide-MHC binding, purified MHC/direct/fluorescence; filed as Kd, often an IC50 or EC50 that approximates it; bounds were set here for any values at or beyond the usual limits of such assays
- SETTINGS: source organism: Burkholderia mallei ATCC 23344
MEASURED PARAMETER: Kd

| RESIDUE STRING | RESULT |
| --- | --- |
| EARGKEKLL | ≥ 20 µM |

---

- SUBJECT OF TEST: HLA-B*18:01
- PROTOCOL: IEDB peptide-MHC binding, purified MHC/direct/fluorescence; filed as Kd, often an IC50 or EC50 that approximates it; bounds were set here for any values at or beyond the usual limits of such assays
- SETTINGS: source organism: Giardia lamblia ATCC 50803
pKd: −log10 of the molar value.
Documented pKd across a set of sequences

| RESIDUE STRING | BOUND TYPE | pKd |
| --- | --- | --- |
| IELEHLRGL | = | 8.00 |
| MHDPHSIPL | ≤ | 4.70 |

---

- SUBJECT OF TEST: HLA-A*68:02
- PROTOCOL: IEDB peptide-MHC binding, purified MHC/competitive/radioactivity; filed as Kd, often an IC50 or EC50 that approximates it; bounds were set here for any values at or beyond the usual limits of such assays
- SETTINGS: source organism: Dengue virus 3 Martinique/1243/1999

| RESIDUE STRING | Kd (nM) |
| --- | --- |
| MIAGVFFTFV | 2.85 |
| WVMKIGIGV | 5.27 |
| ETQGVTAEI | 2.96 |
| TVAWRTATLI | 61.5 |

---

- SUBJECT OF TEST: HLA-B*58:01
- PROTOCOL: IEDB peptide-MHC binding, purified MHC/direct/fluorescence; filed as Kd, often an IC50 or EC50 that approximates it; bounds were set here for any values at or beyond the usual limits of such assays
- SETTINGS: source organism: Vibrio vulnificus

| RESIDUE STRING | Kd |
| --- | --- |
| VNGVKGIQF | ≥ 20 µM |

---

- SUBJECT OF TEST: HLA-A*11:01
- PROTOCOL: IEDB peptide-MHC binding, purified MHC/competitive/fluorescence; filed as Kd, often an IC50 or EC50 that approximates it; bounds were set here for any values at or beyond the usual limits of such assays
- SETTINGS: source organism: Bacillus thuringiensis serovar sotto str. T04001
pKd: −log10 of the molar value.
MEASURED PARAMETER: pKd

| RESIDUE STRING | NUMERIC VALUE |
| --- | --- |
| TVIRFWHAM | 7.01 |
